Source: a melting point compilation (Tetko et al.; mined from patent text by program, amines drawn as free bases though some values may be those of a salt)

Recorded measurements of melting point, one per entry

Query "O=C1CCC(=O)N1[C@H]1CC[C@H](Nc2nccc(-n3nnc4ccccc43)n2)CC1" yields melting point of 205 to 210 °C

Record "Cc1nnc2c(Cl)nc([N+](=O)[O-])c(N)n12" , field melting point: 220 °C

Form: compound = "CC1(C)OC(C=Cc2ccc(F)cc2F)=CC1=O" ; melting point = 98.5 to 100 °C

compound "CCOC(=O)C1(C(=O)OCC)SCC(N(C)C)CS1" , melting point observed: 38 to 39 °C

Entry CCCCC1OC(=O)c2cc(NC(C)=O)c([N+](=O)[O-])cc21 (stereo unspecified) , melting point reported as 167 to 169 °C

---

# key: entry, value: melting point

Would you please look over these solved cases?
>>> value_reported("CC(C)C(=O)Oc1ccc(C(=O)c2ccccc2)cc1")
"69 to 69.5 °C"
>>> value_reported("O=C1C(Br)CCN1c1ccc(OCc2ccccc2)cc1 (racemic)")
"125 to 126 °C"
>>> value_reported("CC(C)Cn1c(=O)n(C)c(=O)c2c(Sc3nnc[nH]3)c(Cc3csc4ccccc34)sc21")
"237 to 238 °C"
>>> value_reported("COc1ccc(C(=O)n2c3c(c4ccccc42)CC(C(=O)O)CC3)cc1 (centres undefined)")
"195 °C"

The recorded melting point for entry "COc1cc(C(=O)CBr)ccc1OC(C)=O" equals 82 °C

Query "CCOC(=O)c1ncc2[nH]c3ccc(I)cc3c2c1C" yields melting point of 250 to 255 °C

Short answer for "Oc1ccc(-c2nn(-c3ccccc3F)c3cc(O)ccc23)c(O)c1" : melting point was > 205 °C

Consider "O=C(CCCC(=O)Oc1ccc(C(=O)OCc2ccccc2)cc1)Oc1ccc(C(=O)OCc2ccccc2)cc1" . Its measured melting point is 93 to 94 °C

Per the record, "Cc1ccc(-n2c(-c3ccc(Br)cc3)c(Br)c(Br)c2-c2ccc(Br)cc2)cc1" has melting point of 240 to 242 °C

---

endpoint.name: melting point

Solved entries:
>>> value_reported("NC(=O)c1cc([N+](=O)[O-])cc(Br)n1")
"179 to 180 °C"
>>> value_reported("CCOC(=O)c1coc2ccc(-c3nnc(C)o3)cc12")
"135 to 136 °C"
>>> value_reported("CN(C)c1ncccc1NC(=NC#N)NC1(c2ccccc2)CCC1")
"204 to 205 °C"
>>> value_reported("CCCn1nc2c(N)nc3ncccc3c2c1CC(C)C")
"257 to 260 °C"
>>> value_reported("CC(C)C(NC(=O)N(C)Cc1ccccn1)C(=O)NC(Cc1ccccc1)C(O)C(Cc1ccccc1)NC(=O)C(NC(=O)N(C)Cc1ccccn1)C(C)C (stereo not given)")
"70 to 72 °C"
>>> value_reported("CCCc1c(S)ccc2c(C)c(CC(=O)OC)c(=O)oc12")
"131 to 132 °C"

// next entry
Briefly, melting point measured for "COc1cc(Cl)ccc1C(=O)Nc1ccc(C(=O)N2Cc3ccccc3Cc3ccccc32)cc1" : 237 to 239 °C

---

Reported melting point values are given for each entry in this list.

Past entries and their recorded results:
>>> value_reported("Cc1ccc(Cn2cc(C(=O)C(=O)O)c3cc(-c4ccccc4)ccc32)cc1")
"195 to 196 °C"
>>> value_reported("CCNC(=O)c1cnn(C)c1[Si](C)(C)C")
"77 to 81 °C"
>>> value_reported("CC(=C(c1ccc(F)cc1)c1ccc(F)cc1)P(c1ccccc1)c1ccccc1")
"88 to 90 °C"

get_value(item= "CC(C)(C)c1cc(Oc2ccc(N)c(O)c2)ccc1Oc1ccc(N)c(O)c1" , readout=melting point) returns 110 to 113 °C

The compound listed as "COc1ccc(Nc2nccc(-c3cccnc3)n2)cc1" has a reported melting point of 121 to 122 °C

Just so you know, measured melting point for "COc1cc2c(cc1OC)-c1c(C#N)sc(=NC(=O)c3ccccc3)n1CC2" came out at 274 to 276 °C

Entry "CCOC(=O)C=Cc1cc(Br)cc(Cc2cccnc2)c1" ; melting point = 81 to 83 °C

get_value(item= CC(O)COC1CCNCC1 (stereo unspecified) , readout=melting point) returns 55 to 57 °C

So for "CCOCc1nc2c(N)nc3ccccc3c2n1NCC(C)C" , the logged melting point turned out to be 137 to 140 °C

Lab book: melting point of CC(C)S(=O)(=O)C1C(=O)N(Cc2ccccc2F)C(=O)c2ccccc21 (stereo unspecified) noted as 174 to 181 °C

melting point measured on "Cc1csc2c(=O)n(N=Cc3ccc(Cl)cc3)cnc12" = 213 to 215 °C

---

endpoint.name: melting point

>>> value_reported("Cc1csc2nc(S(=O)(=O)Nc3cccc4sccc34)nn12")
"205 to 209 °C"
>>> value_reported("N#Cc1ccc(Oc2nccc(-c3c(-c4ccc(F)cc4)ncn3C3CCNCC3)n2)cc1")
"192 to 193 °C"
>>> value_reported("CN(C)c1cnc([N+](=O)[O-])cn1")
"221 to 223 °C"
>>> value_reported("CN1c2ccc(S(=O)(=O)c3ccccc3)cc2C2C[C@H](N)CCC21 (stereo not given in full)")
"217 to 219 °C"

// next entry
Per the records, this compound ( "CCN(CC)c1ccc(-n2c(CC(=O)O)c(C(=O)O)c3cc(Oc4ccc(Cl)cc4)ccc32)cc1" ) has melting point equal to 210 °C

---

endpoint.name: melting point

>>> value_reported("OC1CSC(Oc2cncc(-c3ccc(F)cc3F)c2)C(O)C1O (stereo not given)")
"221 °C"
>>> value_reported("N#Cc1cccc2c1CCCC2=O")
"> 230 °C"
>>> value_reported("CC12CCC3C(CC=C4CCCCC43C)C1CC(F)C2=O (stereo not given)")
"228 to 230 °C"

"Cc1cc(Cl)ccc1Cn1nc(C=O)c2ccccc21" yielded melting point of 107 to 109 °C

Notebook: CCc1cc(Oc2ccc([C@H](O)[C@@H](Cc3cccc(OC(F)(F)C(F)F)c3)NC(=O)c3cccc4c3C=CCCC4)cc2)ccc1Cl (racemic) , melting point read as 116 to 117 °C

---

Reported values of melting point for individual entries

>>> value_reported("Cc1nccn1-c1ccc(COc2cc(F)cc(C3(C(N)=S)CCOCC3)c2)cc1")
"167 to 170 °C"
>>> value_reported("CCN(CC)CCn1nc2c3c(c(CNS(C)(=O)=O)ccc31)Sc1ccccc1-2")
"120 to 125 °C"
>>> value_reported("O=C1c2ccccc2C(c2ccccc2)N1C1CCN(CCC(c2ccccc2)c2ccccc2)CC1 (centres undefined)")
"65 to 69 °C"
>>> value_reported("Cc1c(SCCCN2CCN(Cc3ccc(Cl)s3)CC2)ccnc1CS(=O)c1nc2ccccc2[nH]1 (centres undefined)")
"54 to 58 °C"
>>> value_reported("C=CCOc1cc(Br)ccc1C(C)=NO")
"115 °C"
>>> value_reported("CC(O)(CC(=O)O)c1ccc(-c2ccc(F)cc2)cc1 (centres undefined)")
"81 to 82 °C"
>>> value_reported("Clc1ccc(-c2ccc(Br)cc2)cc1")
"81 to 82 °C"
>>> value_reported("COCCOc1cccc(-n2cc(-c3ccc(O)cc3)c3c(N)ncnc32)c1")
"103 to 112 °C"

Then there is this compound:
Per the records, this compound ( Cc1nc(N2CCCC(C(O)c3ccccc3)C2=O)sc1C(=O)NCc1ccccc1 (centres undefined) ) has melting point equal to 74 to 75 °C

---

Below: a set of entries, each annotated with reported melting point.

>>> value_reported("Cc1oc(-c2ccccc2)nc1COc1ccc2oc(CCCC#N)cc2c1")
"114 to 115 °C"
>>> value_reported("O=C(Cc1c(-c2ccccc2)nn(-c2ccccc2)c1-c1ccccc1)Oc1ccccc1C(=O)O")
"190 to 191 °C"
>>> value_reported("Cc1ccnc(NC(=O)c2c(-c3ccc(F)cc3)c(-c3ccc(F)cc3)c(C=O)n2C(C)C)n1")
"173 to 175 °C"
>>> value_reported("c1c[nH]c(C(c2ccc[nH]2)C23CC4CC(CC(C4)C2)C3)c1")
"168 to 169 °C"
>>> value_reported("COc1cccc(CCC(=O)O)c1OCCCc1cn(-c2ccc(C(F)(F)F)cn2)nc1C(C)C")
"112 to 113 °C"
>>> value_reported("CCCCOc1ccc(S(N)(=O)=O)cc1")
"99 to 101 °C"
>>> value_reported("OC1CSC(Oc2cncc(-c3ccnc(Cl)c3)c2)C(O)C1O (stereo not given)")
"204 °C"
>>> value_reported("CC(=O)N1c2ccccc2OP1c1ccccc1 (stereo not given)")
"73 to 75 °C"
>>> value_reported("C=CCN(CC=C)Cc1noc(-c2ncn3c2CN(C)C(=O)c2ccccc2-3)n1")
"203 to 205 °C"
>>> value_reported("CCOC(=O)c1ccc(COCc2csc3nc(C(=O)NCc4cccc(N(C)C(=O)C(F)(F)F)c4)[nH]c(=O)c23)cc1")
"208 to 209 °C"

Sample "CCSc1nn2ccccc2c1C(C)=O" ; melting point observed: 84 to 85 °C

# melting point of "Cc1nc(=O)n(C)cc1Cl" = 132 to 134 °C

Kindly note the recorded melting point for "CC(=O)Oc1ccc2ncnc(Nc3ccc(OCc4ccccn4)c(C)c3)c2c1" , which is 149 to 151 °C
